Items are presented alongside their recorded ΔpKa.
- test: pKa of the co-former TYA and the APIs, and ΔpKa rule
- Format: physicochemical
- condition_parameters: heading: ΔpKa [= pKa – pKa]; for the adduct of the API (acid) with TYA (base)
Quick one: just the number, no unit, thanks!

| molecule | ΔpKa |
| --- | --- |
| O=C(O)c1cc(-c2ccc(F)cc2F)ccc1O | 6.36 |

Which ΔpKa value is on record for CC(C(=O)O)c1ccc(-c2ccccc2)c(F)c1 (racemic) ? 5.44

The origin of these recorded values is paper PMC12063043.
